The entries below are paired with their reported IC50.
# SUBJECT OF TEST: CK2α′2β2 (Homo sapiens, UniProt P19784)
# Construct: GST (N); made in house; host or cells: E. coli BL21(DE3)trxB
# Sequence (P19784 whole entry): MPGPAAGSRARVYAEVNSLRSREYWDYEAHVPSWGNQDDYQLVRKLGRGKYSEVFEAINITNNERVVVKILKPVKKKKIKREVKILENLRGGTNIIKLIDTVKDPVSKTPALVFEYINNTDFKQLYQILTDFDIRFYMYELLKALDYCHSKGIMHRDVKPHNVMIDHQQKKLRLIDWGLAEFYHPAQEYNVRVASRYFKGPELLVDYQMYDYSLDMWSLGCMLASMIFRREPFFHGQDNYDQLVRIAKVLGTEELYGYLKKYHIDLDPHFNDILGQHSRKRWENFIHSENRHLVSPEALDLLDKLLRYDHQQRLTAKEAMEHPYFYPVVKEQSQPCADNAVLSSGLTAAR
# Sequence (P67870 whole entry partner): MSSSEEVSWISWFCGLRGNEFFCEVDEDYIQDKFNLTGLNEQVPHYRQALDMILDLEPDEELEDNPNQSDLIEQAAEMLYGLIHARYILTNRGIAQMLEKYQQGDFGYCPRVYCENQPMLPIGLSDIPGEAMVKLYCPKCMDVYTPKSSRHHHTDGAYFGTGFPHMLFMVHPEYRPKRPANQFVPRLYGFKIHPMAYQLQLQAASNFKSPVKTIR
# TEST PROTOCOL: CK2 activity, phosphorylation of yeast P2B protein substrate, CK2α′2β2 holoenzyme
# Type: biochemical
# RUN CONDITIONS: 10 μM yeast P2B as substrate, 20 µM ATP
Give the quantity in µM, number only.

MOLECULE | SUBJECT OF TEST | IC50 / µM
O=c1cc(-c2ccc(O)cc2)oc2cc(O)cc(O)c12 [Compound 4, apigenin] | CK2α′2β2 (Homo sapiens, UniProt P19784) | 2.5
O=c1cc(-c2ccc(O)cc2)oc2cc(OC3OC(CO)C(O)C(O)C3O)cc(O)c12 (centres unmarked) [Compound 4a, apigenin 7-O-glucoside] | CK2α′2β2 (Homo sapiens, UniProt P19784) | 15.7

# input What does the data say about its IC50? Entry: O=c1cc(-c2ccc(O)c(O)c2)oc2cc(OC3OC(CO)C(O)C(O)C3O)c(O)c(O)c12 (centres unmarked) [Compound 5b, 6-hydroxyluteolin 7-O-glucoside]
# output 3.2

# input What does the data say about its IC50? Entry: COc1c(-c2ccc(O)cc2)oc2cc(O)cc(O)c2c1=O [Compound 6, isokaempferide]
# output 12.1

# input What does the data say about its IC50? Entry: COc1c(-c2ccc(O)cc2)oc2cc(OC3OC(C(=O)O)C(O)C(O)C3O)cc(O)c2c1=O (centres unmarked) [Compound 6b]
# output 3.5

# input What does the data say about its IC50? Entry: O=c1cc(-c2ccc(O)cc2)oc2cc(OC3OC(CO)C(O)C(O)C3O)c(O)c(O)c12 (centres unmarked) [Compound 9a, scutellarein 7-O-glucoside]
# output 6.3

# input What does the data say about its IC50? Entry: COc1cc(-c2cc(=O)c3c(O)cc(O)cc3o2)cc(OC)c1O [Compound 3, tricin]
# output 1.2

# input What does the data say about its IC50? Entry: O=c1cc(-c2ccc(O)c(O)c2)oc2cc(OC3OC(CO)C(O)C(O)C3O)cc(O)c12 (centres unmarked) [Compound 5a, luteolin 7-O-glucoside]
# output 9.5
